target.system: T1, Beta2-glycoprotein I (β2GPI), full-length, human (human, UniProt P02749 20-345)
T1 construct: mature; Two preparations of the same native protein were used, serum and purified from plasma; the assay field of each row says which; Where anti-β2GPI antibodies (Cedarlane CL20021HP, peroxidase-conjugated) were present, β2GPI stood as dimeric β2GPI/antibody complexes; also called B2GPI; β2GPI in normal human serum
T1 sequence (looked up): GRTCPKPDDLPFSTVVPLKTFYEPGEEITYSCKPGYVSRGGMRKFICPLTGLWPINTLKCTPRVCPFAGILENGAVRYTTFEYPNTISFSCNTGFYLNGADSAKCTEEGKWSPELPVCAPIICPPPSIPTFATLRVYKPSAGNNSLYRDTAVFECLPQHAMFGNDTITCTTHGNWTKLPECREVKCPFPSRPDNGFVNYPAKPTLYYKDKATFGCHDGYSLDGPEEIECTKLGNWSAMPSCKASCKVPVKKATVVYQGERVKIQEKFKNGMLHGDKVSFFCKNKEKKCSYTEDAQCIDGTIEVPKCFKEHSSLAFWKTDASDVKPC
protocol.details: inhibition of binding of 10 nM β2GPI purified from plasma to a cardiolipin-coated plate, with anti-β2GPI antibodies present; OD405, one-site inhibition fit
Description: Next, we analyzed how A1-A1 and A1 inhibit the binding of purified β2GPI to cardiolipin. […] We used β2GPI purified from human plasma available from Haematologic Technologies, Inc. and analyzed the binding and inhibition of the binding of purified β2GPI by A1-A1 and A1 in the presence and in the absence of anti-β2GPI antibodies. […] We incubated 10 nM of β2GPI with various concentrations of the dimeric, A1-A1, and monomeric, A1, inhibitors in the presence of anti-β2GPI antibodies. […]
measurement.name: IC50 (µM)
Just the number in µM, nothing appended.

Exercise: What does the data say about its IC50? Entry: dimeric inhibitor A1-A1 (two A1 ligand-binding LA modules of ApoER2 connected by a Gly-Ser-Ser-Gly linker) (designed binder) AECEEDQFRCRNERCIPLVWRCDEDNDCSDNSDEDDCGSSGCEEDQFRCRNERCIPLVWRCDEDNDCSDNSDEDDCEA
Solution: 26
